- System: OVCAR-4 ovarian
- protocol.notes: NCI tumour cell line growth inhibition, 384-well format; in the data active = GI50 below about 0.43 µM; inactive = the rest
// one of class 1 for active, class 0 for inactive, no free text

-- ask What classification did N#Cc1cc(F)cc(Oc2ccc(S(=O)(=O)C(F)F)c3c2CC(F)(F)[C@H]3O)c1 end up with in this test?
-- reply class 0

-- ask Could you check what this test reported for Cc1ccc(C(=O)Nc2ccc(Oc3cc4cnn(C)c4cc3-c3cn[nH]c3)c(F)c2)c(=O)n1-c1ccc(F)cc1 ?
-- reply class 0

-- ask Could you please tell me the result logged for CO[C@H]1C(=O)[C@]2(C)[C@@H](OC)C[C@H]3OC[C@@]3(OC(C)=O)[C@H]2[C@H](OC(=O)c2ccccc2)[C@]2(O)C[C@H](OC(=O)[C@H](O)[C@@H](NC(=O)OC(C)(C)C)c3ccccc3)C(C)=C1C2(C)C in this assay?
-- reply class 1

-- ask Just curious, what result did NC(=O)c1nc(-c2c(F)cccc2Cl)oc1Nc1ccc(C(=O)N2CCOCC2)cc1 get here?
-- reply class 0

All values here come from PubChem BioAssay (NCI).
